IC50 reference
- Test system: bovine brain tubulin
- assay notes: Tubulin polymerization inhibition (turbidimetry)
- Type: biochemical
- reported conditions: concentration inhibiting 50% of microtubular protein polymerization in vitro; read-out: TPI IC50

Query: Give a short answer stating reported IC50 for COc1ccc2nc(N(C=O)Cc3[nH]cnc3C)sc2c1 .
Reply: > 10 µM

Query: Give a short answer stating reported IC50 for CCNC(=O)N(Cc1[nH]cnc1C)c1nc2ccc(OC)cc2s1 .
Reply: > 10 µM

---
Query: Give a short answer stating reported IC50 for COc1ccc2nc(N(C=O)Cc3ccc4ccccc4c3)sc2c1 .
Reply: > 10 µM

Query: Give a short answer stating reported IC50 for CCNC(=O)N(Cc1cccnc1)c1nc2ccc(OC)cc2s1 .
Reply: 2.9 µM

Query: Give a short answer stating reported IC50 for COc1ccc2nc(N(Cc3ccc4ccccc4c3)C(C)=O)sc2c1 .
Reply: > 10 µM

###

- assay notes: Aqueous solubility, shake-flask method
- Type: physicochemical
- reported conditions: pH 7.0 buffer, pH 7, aqueous buffer, thermodynamic from solid, shaking flask, buffered media at pH 7.0, mean of three
log10(solubility at 72 h) reference
The base-10 logarithm of solubility at 72 h, taken with solubility at 72 h in µg/mL, is what appears here.

Query: Give a short answer stating reported log10(solubility at 72 h) for COc1ccc2nc(NCc3[nH]cnc3C)sc2c1 .
Reply: 1.93

Query: Give a short answer stating reported log10(solubility at 72 h) for COc1ccc2nc(N(Cc3ccccn3)C(C)=O)sc2c1 .
Reply: 1.94

Query: Give a short answer stating reported log10(solubility at 72 h) for COc1ccc2nc(NCc3ccccn3)sc2c1 .
Reply: 1.68

Query: Give a short answer stating reported log10(solubility at 72 h) for CCNC(=O)N(Cc1ccccc1)c1nc2ccc(OC)cc2s1 .
Reply: 1.20

Query: Give a short answer stating reported log10(solubility at 72 h) for COc1ccc(/C=C\c2cc(OC)c(OC)c(OC)c2)cc1O [CA-4, combretastatin A-4, reference compound] .
Reply: 0.04

---
Query: Give a short answer stating reported log10(solubility at 72 h) for COc1ccc2nc(N(C=O)Cc3[nH]cnc3C)sc2c1 .
Reply: 2.22

Query: Give a short answer stating reported log10(solubility at 72 h) for COc1ccc2nc(N(Cc3ccccc3)C(C)=O)sc2c1 .
Reply: 1.11

Query: Give a short answer stating reported log10(solubility at 72 h) for COc1ccc2nc(N(C=O)Cc3ccccc3)sc2c1 .
Reply: 1.08

###

- Tested on: T98G cells
- assay notes: Cell growth inhibition assay (MTT)
- Assay type: cell-based, human
- reported conditions: Homo sapiens, T98G, 72 h after drug exposure
IC50 reference

Some solved cases for reference:
Query: Give a short answer stating reported IC50 for CCNC(=O)N(Cc1ccccc1)c1nc2ccc(OC)cc2s1 .
Reply: > 10 µM

Query: Give a short answer stating reported IC50 for COc1ccc2nc(N(C=O)Cc3ccccc3)sc2c1 .
Reply: > 10 µM

Query: Give a short answer stating reported IC50 for COc1ccc2nc(NCc3ccc4ccccc4c3)sc2c1 .
Reply: > 10 µM

---
Query: Give a short answer stating reported IC50 for COc1ccc2nc(NCc3ccccc3)sc2c1 .
Reply: > 10 µM

Query: Give a short answer stating reported IC50 for CCNC(=O)N(Cc1[nH]cnc1C)c1nc2ccc(OC)cc2s1 .
Reply: > 10 µM

Query: Give a short answer stating reported IC50 for COc1ccc2nc(N(C=O)Cc3[nH]cnc3C)sc2c1 .
Reply: > 10 µM
